Where do these numbers come from? They come from paper PMC6372667.

molecular target: horse serum BChE (Equus caballus); construct: horse serum BChE (EC 3.1.1.8); purchased Sigma-Aldrich Co; host or cells: horse serum; assay: In vitro cholinesterase enzyme assay (Ellman), BChE; format: biochemical; details: mean ± S.D. of three experiments; read-out: IC50 BChE
Sequence (P81908 whole entry): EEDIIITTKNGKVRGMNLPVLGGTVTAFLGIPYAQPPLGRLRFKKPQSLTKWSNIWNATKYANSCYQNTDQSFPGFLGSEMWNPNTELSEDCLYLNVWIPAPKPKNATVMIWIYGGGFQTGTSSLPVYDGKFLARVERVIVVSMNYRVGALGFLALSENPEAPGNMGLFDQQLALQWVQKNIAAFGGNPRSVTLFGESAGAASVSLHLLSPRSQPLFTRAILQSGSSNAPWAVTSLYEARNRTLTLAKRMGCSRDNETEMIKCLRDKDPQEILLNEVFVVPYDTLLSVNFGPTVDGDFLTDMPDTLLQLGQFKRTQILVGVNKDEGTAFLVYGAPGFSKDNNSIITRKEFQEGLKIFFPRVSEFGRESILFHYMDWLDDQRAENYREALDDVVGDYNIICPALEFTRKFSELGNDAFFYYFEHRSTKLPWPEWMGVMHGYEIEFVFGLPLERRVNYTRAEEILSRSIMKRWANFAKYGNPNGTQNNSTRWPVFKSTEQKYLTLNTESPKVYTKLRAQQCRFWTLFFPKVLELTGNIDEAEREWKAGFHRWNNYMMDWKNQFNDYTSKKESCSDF
pIC50: −log10 of the molar value.
Measured pIC50 of individual entries

# compound, pIC50
measured = [
    ("Cc1c(CCO[C@@H]2O[C@H](CO)[C@@H](O)[C@H](O)[C@H]2O)c(CO)cc2c1C(=O)[C@@H](C)C2 [(2S)-Pteroside P, (2S)-pteroside P]", 4.48),
    ("Cc1cc2c(c(C)c1CCOC1OC(CO)C(O)C(O)C1O)C(=O)C(C)(C)C2O [(3S)-Pteroside D, (3S)-pteroside D]", 4.71),
    ("Cc1cc2c(c(C)c1CCO)C(=O)[C@](C)(CO)C2", 4.17),
]
